These measurements were taken from patent US10899754B2.

tested on: human epithelial HeLa cells; assay: HeLa cytotoxicity assay (CellTiter-Glo); assay type: cell-based; conditions: pCC50
quantity: HELA_IDO1_TOX_PXC50

compound	HELA_IDO1_TOX_PXC50
CC(C)CN(CC(C)C)c1ccc(C(C)CC(=O)O)cc1Nc1nc(N2CCCC2)ns1.O=C(O)C(F)(F)F (stereo not shown)	<4.3
CC(C)CN(c1ccc(C(C)CC(=O)O)cc1NC1CCC(C)CC1)C1CCCCC1 (stereo not shown)	<5
CC(C)CN(CC(C)C)c1ccc(C(C)CC(=O)O)cc1Nc1c(Nc2ccccc2)c(=O)c1=O (stereo not shown)	<4.3

Moving on to another compound below.
Reported HELA_IDO1_TOX_PXC50, compound "CC[C@H](CC(=O)O)c1ccc(N(CC(C)C)C2CCCCC2)c(Nc2nc(C(F)(F)F)ns2)c1" : ____
<5
